Reported cell viability values for the following compounds.
# Test system: ED cells (E. derm NBM-6, ATCC CCL-57)
# protocol: cell viability (ATP, CellTiter-Glo) relative to untreated control (fraction of control); higher = less cytotoxic
# experimental.setup: 100 µM; incubation time: 24h
// no unit string in output, number only

Cc1ccnc2c1NC(=O)c1cccnc1N2C1CC1
1.08
CC(C)c1nc(CN(C)C(=O)N[C@H](C(=O)N[C@@H](Cc2ccccc2)C[C@H](O)[C@H](Cc2ccccc2)NC(=O)OCc2cncs2)C(C)C)cs1
0.372
Cc1cc(C#N)cc(C)c1Oc1nc(Nc2ccc(C#N)cc2)nc(N)c1Br
0.674

The record that follows has no cell viability shown yet.
Tested on ED cells (E. derm NBM-6, ATCC CCL-57): Cc1nnc(C(=O)NC(C)(C)c2nc(C(=O)NCc3ccc(F)cc3)c(O)c(=O)n2C)o1 . Observed cell viability: 0.999

* * *

# Test system: ED cells (E. derm NBM-6, ATCC CCL-57)
# protocol: cell viability (ATP, CellTiter-Glo) relative to untreated control (fraction of control); higher = less cytotoxic
# experimental.setup: 0.25 µM; incubation time: 72h
Reported cell viability values for the following compounds.
// no unit string in output, number only

Answered examples (2):
COC(=O)N[C@H](C(=O)N[C@@H](Cc1ccccc1)[C@@H](O)CN(Cc1ccc(-c2ccccn2)cc1)NC(=O)[C@@H](NC(=O)OC)C(C)(C)C)C(C)(C)C
1.12
CC(C)(C)NC(=O)[C@@H]1C[C@@H]2CCCC[C@@H]2CN1C[C@@H](O)[C@H](Cc1ccccc1)NC(=O)[C@H](CC(N)=O)NC(=O)c1ccc2ccccc2n1
1.04

Tested on ED cells (E. derm NBM-6, ATCC CCL-57): CC(C)CN(C[C@@H](OP(=O)(O)O)[C@H](Cc1ccccc1)NC(=O)O[C@H]1CCOC1)S(=O)(=O)c1ccc(N)cc1 . Observed cell viability: 1.08

Tested on ED cells (E. derm NBM-6, ATCC CCL-57): CCC[C@@]1(CCc2ccccc2)CC(O)=C([C@H](CC)c2cccc(NS(=O)(=O)c3ccc(C(F)(F)F)cn3)c2)C(=O)O1 . Observed cell viability: 1.04

* * *

# Tested on: ED cells (E. derm NBM-6, ATCC CCL-57)
# protocol: cell viability (ATP, CellTiter-Glo) relative to untreated control (fraction of control); higher = less cytotoxic
# experimental.setup: 300 µM; incubation time: 24h
measure: cell viability
// no unit string in output, number only

Answered examples (5):
Cc1cc(C#N)cc(C)c1Oc1nc(Nc2ccc(C#N)cc2)nc(N)c1Br [etravirine]
0.249
CC(C)c1nc(CN(C)C(=O)N[C@H](C(=O)N[C@@H](Cc2ccccc2)C[C@H](O)[C@H](Cc2ccccc2)NC(=O)OCc2cncs2)C(C)C)cs1 [ritonavir]
0.363
Nc1nc(NC2CC2)c2ncn([C@H]3C=C[C@@H](CO)C3)c2n1 [abacavir]
0.788
Cc1nnc(C(=O)NC(C)(C)c2nc(C(=O)NCc3ccc(F)cc3)c(O)c(=O)n2C)o1 [raltegravir]
0.963
Nc1nc(=O)n([C@@H]2CS[C@H](CO)O2)cc1F [emtricitabine]
1

According to the records, this compound Cc1ccnc2c1NC(=O)c1cccnc1N2C1CC1 [nevirapine] displays cell viability of 1.04

According to the records, this compound Cc1cn([C@H]2C[C@H](N=[N+]=[N-])[C@@H](CO)O2)c(=O)[nH]c1=O [zidovudine] displays cell viability of 0.958
